These measurements were taken from the supplement of paper PMC10567573.

B1: ZNF449 (parent)
chain: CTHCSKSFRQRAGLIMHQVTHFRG

Variants of: B1
Assay: protein stability index of a GFP-peptide fusion (GPS, HEK-293T) (PSI 1-6); higher = more stable;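 further: lentivirally expressed fusions sorted by FACS into six bins by GFP to DsRed ratio, PSI derived from sequencing read proportions per bin multiplied by bin number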
Conditions: c terminus: a fixed tail appended
Catalogue of protein stability index values

{"change": "M16E", "protein stability index": 3.85}
{"change": "Q18C", "protein stability index": 1.9}
{"change": "G24M", "protein stability index": 2.81}
{"change": "L14T", "protein stability index": 2.09}
{"change": "R23H", "protein stability index": 1.62}
{"change": "Q10S", "protein stability index": 1.99}
{"change": "S5D", "protein stability index": 1.73}
{"change": "R11Q", "protein stability index": 1.8}
{"change": "R9P", "protein stability index": 2.29}
{"change": "T2M", "protein stability index": 1.71}
{"change": "A12Y", "protein stability index": 1.9}
{"change": "K6L", "protein stability index": 2.3}
{"change": "M16I", "protein stability index": 3.24}
{"change": "L14M", "protein stability index": 1.97}
{"change": "G24F", "protein stability index": 2.68}
{"change": "C4W", "protein stability index": 3.01}
{"change": "R23I", "protein stability index": 3.44}
{"change": "G24T", "protein stability index": 2.69}
{"change": "I15N", "protein stability index": 1.73}
{"change": "A12E", "protein stability index": 3.82}
{"change": "I15T", "protein stability index": 2.3}
{"change": "H21P", "protein stability index": 1.49}
{"change": "F22T", "protein stability index": 1.98}
{"change": "C1F", "protein stability index": 1.22}
{"change": "I15V", "protein stability index": 3.12}
{"change": "F8S", "protein stability index": 2.43}
{"change": "T20S", "protein stability index": 1.45}
{"change": "R23N", "protein stability index": 2.15}
{"change": "F22C", "protein stability index": 3.06}
{"change": "G13R", "protein stability index": 2.65}
{"change": "T20D", "protein stability index": 2.18}
{"change": "A12K", "protein stability index": 3.49}
{"change": "F8C", "protein stability index": 2.74}
{"change": "M16G", "protein stability index": 3.45}
{"change": "R9Y", "protein stability index": 1.79}
{"change": "R23L", "protein stability index": 3.36}
{"change": "R23W", "protein stability index": 3.55}
{"change": "C1L", "protein stability index": 2.48}
{"change": "L14G", "protein stability index": 1.41}
{"change": "M16K", "protein stability index": 3.55}
{"change": "L14C", "protein stability index": 1.73}
{"change": "T2P", "protein stability index": 1.82}
{"change": "Q10H", "protein stability index": 2.13}
{"change": "R11N", "protein stability index": 1.8}
{"change": "F22A", "protein stability index": 1.72}
{"change": "H17K", "protein stability index": 2.24}
